# TARGET_SYSTEM: Adenosine receptor A1 (Rattus norvegicus, UniProt P25099)
# Sequence (P25099 whole entry): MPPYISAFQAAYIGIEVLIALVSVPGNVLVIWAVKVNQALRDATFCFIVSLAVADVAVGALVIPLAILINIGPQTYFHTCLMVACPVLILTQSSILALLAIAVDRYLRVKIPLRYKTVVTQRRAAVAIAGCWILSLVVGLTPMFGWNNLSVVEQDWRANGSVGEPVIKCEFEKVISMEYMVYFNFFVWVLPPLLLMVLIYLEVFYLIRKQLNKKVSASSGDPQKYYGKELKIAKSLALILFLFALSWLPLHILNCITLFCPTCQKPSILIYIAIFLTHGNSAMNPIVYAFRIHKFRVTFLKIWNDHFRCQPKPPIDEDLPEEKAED
Study the reported Ki values for Adenosine receptor A1 (Rattus norvegicus, UniProt P25099) given below; they originate from different publications.
PROPERTY_NAME: Ki (nM)

(1) CC(C)Oc1nc(N)c2ncn(C3O[C@H](CO)[C@@H](O)[C@H]3O)c2n1 (stereo not given in full)
(2) Cn1c(=O)c2nc[nH]c2n(CCO)c1=O
(3) Nc1nc(C#CCOc2ccccc2)cn2nc(-c3ccco3)nc12
(4) COc1ccc(Cl)c(CN2CCCn3c2nc2c3c(=O)n(C)c(=O)n2C)c1F
Kindly provide a descending ordering of the above molecules based on their Ki. Record the ranking as a list of labels in the requested order. 2, 1, 4, 3
(2: 60000 nM, 1: 20000 nM, 4: 927 nM, 3: 530 nM)

(I) Cc1c(C)n([C@H](C)c2ccccc2)c2nc(-c3ccccc3)nc(N)c12
(II) C#CCn1c(C)nc2sc(C)c(C)c2c1=O
(III) CCCCc1c(C(=O)SCC)c(CC)c(C(=O)OCC)c(-c2ccccc2)[n+]1C
# rank by Ki, ascending (min first) Record the ranking as a list of labels in the requested order. II, I, III
(II: 6 nM, I: 165 nM, III: 14500 nM)
